All values here come from PubChem BioAssay (NCI).

# Method: NCI Yeast Anticancer Drug Screen. Data for the sgs1 mgt1 strain (AID 161);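 note: 0% = growth of cultures given vehicle only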
# Study Conditions: S. cerevisiae sgs1 mgt1 strain, at 50.0 µM, hits give high values
The panel holds about 79,000 compounds, 15% with a hit somewhere; the sample as a whole holds those more often.
We begin with a simple list: items and their reported growth inhibition.
Endpoint: growth inhibition (%)

{"Compound": "Cc1c2c(C#N)nccc2c(C)c2c1c1ccccc1n2Cc1ccccc1", "Unit Abbreviation": "%", "Value Measured": -8.3}
{"Compound": "O=c1[nH]nc(S(=O)(=O)N2CCCC2)c(=O)[nH]1", "Unit Abbreviation": "%", "Value Measured": -10.7}
{"Compound": "C[N+](C)(C)CCC(=O)CC[N+](C)(C)C", "Unit Abbreviation": "%", "Value Measured": 0.5}
{"Compound": "C/C(=N/Nc1ccc([N+](=O)[O-])cc1[N+](=O)[O-])C1CC2CCC1C2 (configuration not stated)", "Unit Abbreviation": "%", "Value Measured": 2.1}
{"Compound": "c1ccc(C(N2CCNCC2)N2CCNCC2)cc1", "Unit Abbreviation": "%", "Value Measured": 10.1}
{"Compound": "Nc1ccc(S(=O)(=O)NC(=O)c2ccccc2)cc1", "Unit Abbreviation": "%", "Value Measured": 10.1}
{"Compound": "Cc1nnc2c3nccnc3c(Cl)nn12", "Unit Abbreviation": "%", "Value Measured": 56.3}
{"Compound": "O=C1CN(C2CCCCC2)CC(=O)N2C(c3ccccc3)CCCN12 (configuration not stated)", "Unit Abbreviation": "%", "Value Measured": 14.7}
{"Compound": "O=C(O)C1CCCCC1C(=O)Nc1nc2ccccc2[nH]1 (configuration not stated)", "Unit Abbreviation": "%", "Value Measured": -12.7}
{"Compound": "C=CCc1cc(OC)c2c(c1)C(O)CC(c1ccccc1)O2 (configuration not stated)", "Unit Abbreviation": "%", "Value Measured": -34.6}
{"Compound": "NC(CCCO)C(=O)O (configuration not stated)", "Unit Abbreviation": "%", "Value Measured": -24.1}
{"Compound": "NC(=O)c1ncccc1C(=O)O", "Unit Abbreviation": "%", "Value Measured": -18.6}

====

# Method: NCI Yeast Anticancer Drug Screen. Data for the mlh1 rad18 strain (AID 175)
# Study Conditions: S. cerevisiae mlh1 rad18 strain growth inhibition; at 50.0 µM; hits give high values
This is part of a sample that, as a whole, favours compounds with a hit. Of some 79,000 tested, about 15% had one in any assay.
Endpoint: growth inhibition (%)

{"Compound": "CCOC(=O)c1cc(C=O)nc2c(Cl)cc(Cl)cc12", "Value Measured": 17.6}
{"Compound": "C1CCC(C(CCCCC(C2CCCCC2)C2CCCCC2)C2CCCCC2)CC1", "Value Measured": -2.6}
{"Compound": "COc1ccccc1C(O)C(C)(C)C (stereo not given)", "Value Measured": 28.9}
{"Compound": "CNc1n[nH]c(-c2ccccc2)n1", "Value Measured": 1.8}
{"Compound": "CN(C)C1Cc2ccccc2C1OC(=O)c1ccccc1 (stereo not given)", "Value Measured": 37.1}
{"Compound": "C/C=C/C=C/C(=O)CCC1(C)OC(=O)C(C)=C1O (stereo not given)", "Value Measured": 6.25}
{"Compound": "O=C1OC(C2OC(=O)C(=O)C2C(=O)c2cccc([N+](=O)[O-])c2)C(C(=O)c2cccc([N+](=O)[O-])c2)C1=O (stereo not given)", "Value Measured": 29.6}
{"Compound": "OCCN(CCO)CCCNc1ccnc2cc(Cl)ccc12", "Value Measured": 5.2}
{"Compound": "Cn1ncc2c(NCCc3ccccc3)nc(Cl)nc21", "Value Measured": 30.2}
{"Compound": "Cc1cc(C)c(NC(=O)C(C)(C)C)c(C)c1", "Value Measured": -2.2}
{"Compound": "Cc1ccc(S(=O)(=O)CC(=O)c2ccc(Br)cc2)cc1", "Value Measured": 8.75}
{"Compound": "Cc1c(N=Nc2cccc(Cl)c2)c(-c2ccccc2)nn1C(N)=S", "Value Measured": 92.5}
{"Compound": "COC1=C(OCc2ccccc2)C(=O)OC1C(O)CO (stereo not given)", "Value Measured": -12}
{"Compound": "CN(C)CCO[Si](C)(c1ccccc1)c1ccc(F)cc1 (stereo not given)", "Value Measured": 3.95}
{"Compound": "CC1CCN(C(=O)c2cc(Nc3ccnc4cc(Cl)ccc34)ccc2O)CC1", "Value Measured": 7.6}

====

# Method: NCI Yeast Anticancer Drug Screen. Data for the bub3 strain (AID 167)
# Study Conditions: S. cerevisiae bub3 mutant strain, at 50.0 µM, hits give high values
Compounds without any hit were thinned out: in the full panel of roughly 79,000, 15% have a hit.
Endpoint: growth inhibition (%)

{"Compound": "Nc1c(N=Nc2ccc(S(=O)(=O)Nc3cnccn3)cc2)cc(S(=O)(=O)O)c2ccccc12", "Value Measured": 9.8}
{"Compound": "O=C(Cc1cccc2ccccc12)NO", "Value Measured": -28.4}
{"Compound": "CC(C)=NOC(=O)Nc1cccc2c1OCO2", "Value Measured": -35.5}
{"Compound": "COc1cc(/C=C/c2cc(/C=C/c3ccc(O)c(OC)c3)c([N+](=O)[O-])cc2[N+](=O)[O-])ccc1O", "Value Measured": 7.15}
{"Compound": "COc1c(C)c2nc3ccccc3[nH]c2c2c(=O)ccnc12", "Value Measured": -21.9}
{"Compound": "C=C1C2CC(OC(C)=O)C3(C)C(c4ccoc4)OC(=O)[C@@H](O)[C@]13OC1C[C@H](OC(C)=O)C(C)(C)[C@H](C(O)C(=O)OC)[C@]12C (stereo partly drawn)", "Value Measured": -8.1}
{"Compound": "O=C(O)C1C2C=CC(O2)C1C(=O)Nn1cccc1 (stereo not drawn)", "Value Measured": -16.6}
{"Compound": "CCOC(=O)C(C(=O)OCC)(C(=O)C(F)(F)C(F)(F)C(F)(F)C(F)(F)C(=O)C(C(=O)OCC)(C(=O)OCC)c1ccccc1)c1ccccc1", "Value Measured": 7.75}

====

# Method: NCI Yeast Anticancer Drug Screen. Data for the sgs1 mgt1 strain (AID 161);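 note: 0% = growth of cultures given vehicle only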
# Study Conditions: S. cerevisiae sgs1 mgt1 strain, at 50.0 µM, hits give high values
Compounds without any hit were thinned out: in the full panel of roughly 79,000, 15% have a hit.
Label Y when growth inhibition >= -10%; otherwise N.

{"Molecule": "COc1ccc(C2C(N)=NCC2c2ccccn2)cc1 (stereo not given)", "Assigned Label": "N"}
{"Molecule": "C[C@]12C(=O)OC[C@H](c3ccccc3)N1C(=O)N(Cc1ccccc1)[C@@H]2CO", "Assigned Label": "N"}
{"Molecule": "O=C1NC(=O)C(CCBr)N1 (stereo not given)", "Assigned Label": "N"}
{"Molecule": "CN(C)S(=O)(=O)c1ccc(NC(=O)OC2CCCC2)cc1", "Assigned Label": "Y"}
{"Molecule": "COCCCN1COCC(COc2ccc(Cl)cc2)OC1 (stereo not given)", "Assigned Label": "N"}

====

# Method: NCI Yeast Anticancer Drug Screen. Data for the sgs1 mgt1 strain (AID 161);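 note: 0% = growth of cultures given vehicle only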
# Study Conditions: S. cerevisiae sgs1 mgt1 strain, at 50.0 µM, hits give high values
Compounds without any hit were thinned out: in the full panel of roughly 79,000, 15% have a hit.

{"Molecule": "CCCCCCCCCCCCCCSc1ccc2ccccc2c1", "growth inhibition (%)": -2.7}
{"Molecule": "O=C1C[C@H]2CCCC[C@@H]2O1", "growth inhibition (%)": 26.5}
{"Molecule": "CCOC(=O)C(NCc1cccc(C(F)(F)F)c1)(NC(=O)c1ccccc1)C(F)(F)F (stereo not drawn)", "growth inhibition (%)": -1.95}
{"Molecule": "CN(CCO)c1nc(N)cc(=O)[nH]1", "growth inhibition (%)": -10.9}
{"Molecule": "O=[N+]([O-])c1cc2c(c3nonc13)OCCCCO2", "growth inhibition (%)": 47.4}
{"Molecule": "CCCCCCCCCCCCCC(=O)OCCCC", "growth inhibition (%)": -59.1}
{"Molecule": "Cc1ccc(S(=O)OCC23CC4CC(CC(C4)C2)C3)cc1 (stereo not drawn)", "growth inhibition (%)": -1.05}
{"Molecule": "N#CC1CCN(Cc2ccccc2)C(C#N)C1 (stereo not drawn)", "growth inhibition (%)": -16.8}
{"Molecule": "CC(=O)Nc1cccc(S(=O)(=O)c2cccc(NC(C)=O)c2)c1", "growth inhibition (%)": -7.55}
{"Molecule": "O=C1C(Cl)=C(N(C(=O)c2ccccc2)C(=O)c2ccccc2)C(=O)c2ccccc21", "growth inhibition (%)": 83.2}
{"Molecule": "O=[N+]([O-])C(CO)(CO)c1ccccc1", "growth inhibition (%)": 6}
{"Molecule": "COc1ccc2nc(C)c3c(c2c1)C(=O)N(CCCN1CCN(CCCN2C(=O)c4c(C)nc5ccc(OC)cc5c4C2=O)CC1)C3=O", "growth inhibition (%)": -7.5}
{"Molecule": "Cc1sc2ccnc(C)c2c1S(=O)(=O)O", "growth inhibition (%)": -9.95}
